# test_system: T1, hEva1-mouse Fc (human, UniProt O60487 27-154, limits assumed)
# T1 construct: SPR analyte; the '1' is probably the first concentration (1 nM); also called hEva1-mouse Fc1 (so in the source); not shown: mouse Fc
# T1 sequence: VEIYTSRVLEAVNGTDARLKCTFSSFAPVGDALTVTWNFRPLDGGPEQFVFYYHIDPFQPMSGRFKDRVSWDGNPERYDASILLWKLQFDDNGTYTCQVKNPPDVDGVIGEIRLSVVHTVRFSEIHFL
# experiment_notes: SPR (BiaCore T200), single-cycle kinetics; antibody captured by anti-human IgG on CM5 chip, hEva1-mouse Fc as analyte
# Protocol: The dissociation constants and association constants of the humanized antibodies and the like were analyzed by using surface plasmon resonance (SPR, product name: BiaCore T200 (manufactured by GE healthcare)). Specifically, first, human IgG capture antibodies were immobilized on a CM5 chip by an amine coupling method. […] Then, the kinetics analysis on the anti-Eval antibody and hEva1 was conducted by a single-cycle method using the following measurement conditions.
The entries below come with measured kon values attached.
attribute_measured: kon (M⁻¹ s⁻¹)

humanized B2E5-48 antibody H4-L3 (antibody, human IgG1, V domains shown, Human IgG1 heavy chain and human kappa light chain vectors; made in HEK293T cells) VH: QVQLVQSGSELKKPGASVKVSCKASGYTFTNYWMHWVRQAPGQGLEWMGEINPTNGGTDYNEGFTGRFVFSVDKSVSTAYLQISSLKAEDTAVYYCTIYTTALDYWGQGTLVTVSS VL: QIQLTQSPSFLSASVGDRVTITCRASSSVGYMYWYQQKPGKAPKPLIYVTSNLASGVPSRFSGSGSGTEYTLTISSLQPEDFATYYCQQWSSNPPTFGQGTKLEIK    15500
humanized B2E5-48 antibody H4-L2 (antibody, human IgG1, V domains shown, Human IgG1 heavy chain and human kappa light chain vectors; made in HEK293T cells) VH: QVQLVQSGSELKKPGASVKVSCKASGYTFTNYWMHWVRQAPGQGLEWMGEINPTNGGTDYNEGFTGRFVFSVDKSVSTAYLQISSLKAEDTAVYYCTIYTTALDYWGQGTLVTVSS VL: EIVLTQSPATLSLSPGERATLSCRASSSVGYMYWYQQKPGQAPRPLIYVTSNRATGIPARFSGSGSGTDYTLTISSLEPEDFAVYYCQQWSSNPPTFGQGTKLEIK    19000
humanized B2E5-48 antibody H2-L3 (antibody, human IgG1, V domains shown, Human IgG1 heavy chain and human kappa light chain vectors; made in HEK293T cells) VH: QVQLVQSGAEVKKPGASVKVSCKASGYTFTNYWMHWVRQAPGQGLEWMGEINPTNGGTDYNEKFQGRVTMTVDKSTSTAYMELSSLRSEDTAVYYCTIYTTALDYWGQGTLVTVSS VL: QIQLTQSPSFLSASVGDRVTITCRASSSVGYMYWYQQKPGKAPKPLIYVTSNLASGVPSRFSGSGSGTEYTLTISSLQPEDFATYYCQQWSSNPPTFGQGTKLEIK    20700
humanized B2E5-48 antibody H3-L2 (antibody, human IgG1, V domains shown, Human IgG1 heavy chain and human kappa light chain vectors; made in HEK293T cells) VH: QVQLVQSGSELKKPGASVKVSCKASGYTFTNYWMHWVRQAPGQGLEWIGEINPTNGGTDYNEGFTGRFVLSVDKSSSTAYLQISSLKAEDTAVYYCTIYTTALDYWGQGTLVTVSS VL: EIVLTQSPATLSLSPGERATLSCRASSSVGYMYWYQQKPGQAPRPLIYVTSNRATGIPARFSGSGSGTDYTLTISSLEPEDFAVYYCQQWSSNPPTFGQGTKLEIK    16800
